target: T1, human PD-L1 (CD274), full-length, expressed on the surface of CHO cells (human, UniProt Q9NZQ7 19-290); test: flow cytometry; MFI on PD-L1 CHO cells over MFI on Jurkat cells (CD28)
T1 construct: also called huPD-L1; B7-H1
T1 sequence (Q9NZQ7 19-290): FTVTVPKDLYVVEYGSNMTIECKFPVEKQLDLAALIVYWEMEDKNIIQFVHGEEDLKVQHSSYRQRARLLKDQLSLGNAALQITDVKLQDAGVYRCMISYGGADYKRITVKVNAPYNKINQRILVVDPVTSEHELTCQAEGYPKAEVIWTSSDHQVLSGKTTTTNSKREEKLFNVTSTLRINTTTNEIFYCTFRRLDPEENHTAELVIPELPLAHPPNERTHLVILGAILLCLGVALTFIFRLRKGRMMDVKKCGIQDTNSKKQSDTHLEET
Threshold check on Ratio of PDL1:CD28: strictly below 300 ratio is 1; on or above 300 ratio is 0.

1. variant CD80 IgV-Fc Q33L/E35D/M43V/M47I/A71G (Fc fusion, not shown: a dimerising Fc or GST) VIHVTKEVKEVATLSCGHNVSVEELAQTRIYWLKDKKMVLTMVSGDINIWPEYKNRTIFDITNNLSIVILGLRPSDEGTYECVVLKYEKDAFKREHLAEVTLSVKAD :: 1

Now let's try a different one.
Task: Just wondering, is Ratio of PDL1:CD28 of variant CD80 IgV-Fc V22A/E35D/V68E/A71D (Fc fusion, not shown: a dimerising Fc or GST, The molecule is an Fc fusion, which the general text describes as a dimer) VIHVTKEVKEVATLSCGHNVSAEELAQTRIYWQKDKKMVLTMMSGDMNIWPEYKNRTIFDITNNLSIEILDLRPSDEGTYECVVLKYEKDAFKREHLAEVTLSVKAD below 300 ratio?
Result: 1
